assay: Cellular Toxicity (caspase-3) Renal Proximal Tubule (AID 667); details: renal proximal tubule cells, primary cells freshly taken from rat; caspase-3 activation; series mostly up to 91.7 µM;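 further: cells exposed to compound for 16 hours at 37 °C before detection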
Activity calls are given as the source filed them. The call rests on the fitted dose curve; in most records, active means well fitted activation curve with a large enough effect; inconclusive means small, poorly fitted or top-dose-only effect, or effect the other way; inactive means flat fitted curve, though single readings scatter.
Permitted responses: active, inactive

Reference set, count: 5
Ask | Could you please tell me the result logged for Nc1ccc(O)c(C(=O)O)c1 in this assay?
Reply | inactive

Ask | I'd appreciate the recorded outcome for CN(C)c1ccc(N=NS(=O)(=O)O)cc1 from this test.
Reply | inactive

Ask | Called result for CCCCCCCCCCCCCCCCCC(=O)O
Reply | inactive

Ask | Call for entry NCCO :
Reply | inactive

Ask | Hi team, can someone confirm the assay call for CN(C)c1ccc(C(=C2C=CC(=[N+](C)C)C=C2)c2ccccc2)cc1 ?
Reply | active

Further cases:
Ask | What outcome does the record of this test show for CC(C)NCC(O)COc1cccc2ccccc12 (stereo unspecified) ?
Reply | inactive

Ask | Status in this test for C#C[C@]1(O)CC[C@H]2[C@@H]3CCc4cc(O)ccc4[C@H]3CC[C@@]21C ?
Reply | inactive

Ask | Outcome? Oc1ccccc1O
Reply | inactive

Ask | Assay result, entry S=c1[nH]c2ccccc2s1 — outcome?
Reply | inactive

Ask | How did this test come out for Nc1ccc([N+](=O)[O-])cc1O ?
Reply | inactive

Ask | In this assay, the call recorded for O=C(O)c1cc(O)c(O)c(O)c1 was what?
Reply | inactive

Ask | What classification did Nc1nc2ccc([N+](=O)[O-])cc2s1 end up with in this test?
Reply | inactive

Ask | Identify the outcome logged in this assay for the compound shown: c1cnc2c(c1)ccc1cccnc12
Reply | inactive

Ask | So what was the verdict on O=C1CN(/N=C/c2ccc([N+](=O)[O-])o2)C(=O)N1 in this test?
Reply | inactive

Ask | Please let me know the test result on file for CCCOC(=O)c1ccc(O)cc1 .
Reply | inactive

Ask | Call for entry CN(C)CCC(c1ccc(Cl)cc1)c1ccccn1 (stereo unspecified) :
Reply | inactive
